// reported kd var/kd wt for each item listed
Target: T1, human TGFβ2 (human, UniProt P61812 303-414)
T1 construct: also called TGFβ2 homodimer
T1 sequence: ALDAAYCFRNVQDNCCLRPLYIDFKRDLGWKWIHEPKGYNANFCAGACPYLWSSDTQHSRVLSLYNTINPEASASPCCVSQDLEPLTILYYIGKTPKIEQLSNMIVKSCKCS
Experiment: Biacore off-rate vs wt GC1008, 50 nM
Form rule: numeric answer, no unit written next to it.

Please review the following examples before continuing.
{"BINDER": "S30C (antibody, V domains shown, GC1008 IgG4 variant) VH: QVQLVQSGAEVKKPGSSVKVSCKASGYTFCSNVISWVRQAPGQGLEWMGGVIPIVDIANYAQRFKGRVTITADESTSTTYMELSSLRSEDTAVYYCASTLGLVLDAMDYWGQGTLVTVSS VL: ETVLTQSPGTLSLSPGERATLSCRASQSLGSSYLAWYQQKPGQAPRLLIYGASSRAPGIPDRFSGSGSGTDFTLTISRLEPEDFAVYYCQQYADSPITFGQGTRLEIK", "kd var/kd wt": 1.1}
{"BINDER": "S31K (antibody, V domains shown, GC1008 IgG4 variant) VH: QVQLVQSGAEVKKPGSSVKVSCKASGYTFSKNVISWVRQAPGQGLEWMGGVIPIVDIANYAQRFKGRVTITADESTSTTYMELSSLRSEDTAVYYCASTLGLVLDAMDYWGQGTLVTVSS VL: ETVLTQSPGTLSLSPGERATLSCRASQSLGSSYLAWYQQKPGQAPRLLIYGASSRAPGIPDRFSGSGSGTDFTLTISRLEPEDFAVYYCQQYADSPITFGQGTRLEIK", "kd var/kd wt": 1.2}
{"BINDER": "N32K (antibody, V domains shown, GC1008 IgG4 variant) VH: QVQLVQSGAEVKKPGSSVKVSCKASGYTFSSKVISWVRQAPGQGLEWMGGVIPIVDIANYAQRFKGRVTITADESTSTTYMELSSLRSEDTAVYYCASTLGLVLDAMDYWGQGTLVTVSS VL: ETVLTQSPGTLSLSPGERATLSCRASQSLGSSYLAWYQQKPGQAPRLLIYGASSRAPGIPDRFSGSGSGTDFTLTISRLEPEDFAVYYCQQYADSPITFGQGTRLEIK", "kd var/kd wt": 1.4}
{"BINDER": "S31G (antibody, V domains shown, GC1008 IgG4 variant) VH: QVQLVQSGAEVKKPGSSVKVSCKASGYTFSGNVISWVRQAPGQGLEWMGGVIPIVDIANYAQRFKGRVTITADESTSTTYMELSSLRSEDTAVYYCASTLGLVLDAMDYWGQGTLVTVSS VL: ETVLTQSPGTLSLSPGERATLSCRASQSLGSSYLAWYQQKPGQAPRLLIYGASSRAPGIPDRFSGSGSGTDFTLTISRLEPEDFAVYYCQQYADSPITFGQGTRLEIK", "kd var/kd wt": 1.2}
{"BINDER": "E74Q (antibody, V domains shown, GC1008 IgG4 variant) VH: QVQLVQSGAEVKKPGSSVKVSCKASGYTFSSNVISWVRQAPGQGLEWMGGVIPIVDIANYAQRFKGRVTITADQSTSTTYMELSSLRSEDTAVYYCASTLGLVLDAMDYWGQGTLVTVSS VL: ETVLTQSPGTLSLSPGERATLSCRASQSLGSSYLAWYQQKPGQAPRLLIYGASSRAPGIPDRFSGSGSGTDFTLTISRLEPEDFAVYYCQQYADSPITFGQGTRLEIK", "kd var/kd wt": 0.8}
{"BINDER": "I54S (antibody, V domains shown, GC1008 IgG4 variant) VH: QVQLVQSGAEVKKPGSSVKVSCKASGYTFSSNVISWVRQAPGQGLEWMGGVIPSVDIANYAQRFKGRVTITADESTSTTYMELSSLRSEDTAVYYCASTLGLVLDAMDYWGQGTLVTVSS VL: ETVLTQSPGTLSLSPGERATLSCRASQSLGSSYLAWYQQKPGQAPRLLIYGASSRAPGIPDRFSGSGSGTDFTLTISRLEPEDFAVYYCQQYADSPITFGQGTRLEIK", "kd var/kd wt": 1.7}

Problem: For the binder S31W (antibody, V domains shown, GC1008 IgG4 variant) VH: QVQLVQSGAEVKKPGSSVKVSCKASGYTFSWNVISWVRQAPGQGLEWMGGVIPIVDIANYAQRFKGRVTITADESTSTTYMELSSLRSEDTAVYYCASTLGLVLDAMDYWGQGTLVTVSS VL: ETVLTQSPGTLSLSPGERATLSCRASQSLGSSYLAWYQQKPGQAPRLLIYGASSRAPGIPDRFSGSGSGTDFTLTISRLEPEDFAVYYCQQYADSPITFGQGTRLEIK , give its measured kd var/kd wt value.
Result: 1.4

Problem: For the binder S30Q (antibody, V domains shown, GC1008 IgG4 variant) VH: QVQLVQSGAEVKKPGSSVKVSCKASGYTFQSNVISWVRQAPGQGLEWMGGVIPIVDIANYAQRFKGRVTITADESTSTTYMELSSLRSEDTAVYYCASTLGLVLDAMDYWGQGTLVTVSS VL: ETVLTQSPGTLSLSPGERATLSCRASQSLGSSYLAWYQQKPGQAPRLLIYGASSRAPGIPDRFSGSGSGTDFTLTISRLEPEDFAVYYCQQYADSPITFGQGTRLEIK , give its measured kd var/kd wt value.
Result: 1.2

Problem: For the binder I52P (antibody, V domains shown, GC1008 IgG4 variant) VH: QVQLVQSGAEVKKPGSSVKVSCKASGYTFSSNVISWVRQAPGQGLEWMGGVPPIVDIANYAQRFKGRVTITADESTSTTYMELSSLRSEDTAVYYCASTLGLVLDAMDYWGQGTLVTVSS VL: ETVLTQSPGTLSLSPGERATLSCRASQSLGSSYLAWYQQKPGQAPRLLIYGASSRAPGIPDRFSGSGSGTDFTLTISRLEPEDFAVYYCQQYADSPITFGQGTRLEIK , give its measured kd var/kd wt value.
Result: 1.9

Problem: For the binder I54Q (antibody, V domains shown, GC1008 IgG4 variant) VH: QVQLVQSGAEVKKPGSSVKVSCKASGYTFSSNVISWVRQAPGQGLEWMGGVIPQVDIANYAQRFKGRVTITADESTSTTYMELSSLRSEDTAVYYCASTLGLVLDAMDYWGQGTLVTVSS VL: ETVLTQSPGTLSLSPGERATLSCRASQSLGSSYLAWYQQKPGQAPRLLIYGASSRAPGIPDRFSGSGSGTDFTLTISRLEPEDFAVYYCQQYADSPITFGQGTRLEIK , give its measured kd var/kd wt value.
Result: 1.8
